- TEST NAME: qHTS assay to identify small molecule that activate the aryl hydrocarbon receptor (AhR) signaling pathway - cell viability counter screen (AID 743086);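 note: HepG2 liver cells carrying the AhR DRE luciferase reporter; nearly all actives have a fitted effect of over 45% in size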
- ASSAY CONDITIONS: HepG2-AhR-luc viability, CellTiter-Fluor, 24 h; series mostly up to 70.3 µM
Records with an inconclusive call do not appear. Active and inactive are the calls of the source. Calls come from the whole dose curve; as a rule, active = well fitted cell-killing curve with a large enough effect in the repeat runs; inconclusive = weak or mixed curves, or effect the other way; inactive = flat fitted curve, though single readings scatter.
MEASURED ENDPOINT: outcome

[[record]]
compound = "CCCCC(CC)COP(=O)(OCC(CC)CCCC)OCC(CC)CCCC (centres undefined)"
measured_endpoint = "outcome"
experimental_result = "inactive"

[[record]]
compound = "O=[N+]([O-])c1ccc2c(c1)Cc1ccccc1-2"
measured_endpoint = "outcome"
experimental_result = "inactive"

[[record]]
compound = "CC(C)=CCCC(C)CCO (centres undefined)"
measured_endpoint = "outcome"
experimental_result = "inactive"

[[record]]
compound = "CCC(C)c1ccccc1O (centres undefined)"
measured_endpoint = "outcome"
experimental_result = "inactive"

[[record]]
compound = "c1ccc2cc(Nc3ccc(Nc4ccc5ccccc5c4)cc3)ccc2c1"
measured_endpoint = "outcome"
experimental_result = "inactive"

[[record]]
compound = "C#C[C@]1(O)CC[C@H]2[C@@H]3CCc4cc(OC)ccc4[C@H]3CC[C@@]21C"
measured_endpoint = "outcome"
experimental_result = "inactive"

[[record]]
compound = "c1ccc2c(c1)Oc1ccccc1S2"
measured_endpoint = "outcome"
experimental_result = "inactive"

[[record]]
compound = "CCCc1c(OCCCCc2nn[nH]n2)ccc(C(C)=O)c1O"
measured_endpoint = "outcome"
experimental_result = "inactive"

[[record]]
compound = "O=C(/C=C/c1ccccc1)OCc1ccccc1"
measured_endpoint = "outcome"
experimental_result = "inactive"

[[record]]
compound = "Cc1[nH]c(=O)c(C#N)cc1-c1ccncc1"
measured_endpoint = "outcome"
experimental_result = "inactive"

[[record]]
compound = "CC(=O)c1ccccn1"
measured_endpoint = "outcome"
experimental_result = "inactive"

[[record]]
compound = "O=Cc1ccccc1O"
measured_endpoint = "outcome"
experimental_result = "inactive"

[[record]]
compound = "CN(C)C(=N)N=C(N)N"
measured_endpoint = "outcome"
experimental_result = "inactive"

[[record]]
compound = "CC(=O)O[C@]1(C(C)=O)CC[C@H]2[C@@H]3C=C(Cl)C4=CC(=O)[C@@H]5C[C@@H]5[C@]4(C)[C@H]3CC[C@@]21C"
measured_endpoint = "outcome"
experimental_result = "inactive"

[[record]]
compound = "C[C@]12CC[C@H]3[C@@H](CCC4=CC(=O)CC[C@@]43C)[C@@H]1CC[C@@H]2C(=O)CO"
measured_endpoint = "outcome"
experimental_result = "inactive"

[[record]]
compound = "O=C(c1ccccc1)c1ccc(O)cc1O"
measured_endpoint = "outcome"
experimental_result = "inactive"

[[record]]
compound = "CC(C)OC(=O)C(C)(C)Oc1ccc(C(=O)c2ccc(Cl)cc2)cc1"
measured_endpoint = "outcome"
experimental_result = "inactive"

[[record]]
compound = "O=C(O)c1ccccc1Nc1cccc(C(F)(F)F)c1"
measured_endpoint = "outcome"
experimental_result = "inactive"

[[record]]
compound = "O=C(c1ccccc1)c1ccccc1O"
measured_endpoint = "outcome"
experimental_result = "inactive"

[[record]]
compound = "COc1ccc(OC)c(C(O)CNC(=O)CN)c1 (centres undefined)"
measured_endpoint = "outcome"
experimental_result = "inactive"

[[record]]
compound = "CCCCCCCCCCCO"
measured_endpoint = "outcome"
experimental_result = "inactive"

[[record]]
compound = "CCC(C)CO (centres undefined)"
measured_endpoint = "outcome"
experimental_result = "inactive"

[[record]]
compound = "CCCCC/C=C/C=C/C=O"
measured_endpoint = "outcome"
experimental_result = "inactive"

[[record]]
compound = "Cc1ccc(C)c(O)c1C"
measured_endpoint = "outcome"
experimental_result = "inactive"

[[record]]
compound = "C=C(C)C(=O)OCCOC(=O)C(=C)C"
measured_endpoint = "outcome"
experimental_result = "inactive"

[[record]]
compound = "c1ccncc1"
measured_endpoint = "outcome"
experimental_result = "inactive"

[[record]]
compound = "COc1c(Cl)c(Cl)c(Cl)c(Cl)c1Cl"
measured_endpoint = "outcome"
experimental_result = "inactive"

[[record]]
compound = "CC1=CC2C3CC(C=C3C)C2C1 (centres undefined)"
measured_endpoint = "outcome"
experimental_result = "inactive"

[[record]]
compound = "c1ccc(Nc2ccccc2)cc1"
measured_endpoint = "outcome"
experimental_result = "inactive"

